src = patent US11351151B2

test system: SNU739; test: Cell proliferation assay (Alamar Blue); type: cell-based; details: SNU-739, 144 h; SNU739 liver cancer cell line; 6 days
So I've got a bunch of molecules here, and I need their pIC50 values.
Remember the convention: pIC50 equals -log10 of concentration in molar.

Data request: Hello, I am looking for reported pIC50 with SNU739 for Cc1ccc(F)c(NC(=O)Nc2ccc(-c3cccc4c3c(N)nn4C(=O)CCCCCNC(=O)C[C@H](N)C(=O)N[C@@H](CCC(=O)O)C(=O)O)cc2)c1 [Compound 4] . Could you help?
Data returned: 4.13

Data request: Same thing, different molecule: Cc1ccc(F)c(NC(=O)Nc2ccc(-c3cccc4c3c(N)nn4C(=O)CCCCCCCCCCCNC(=O)C[C@H](N)C(=O)N[C@@H](CCC(=O)O)C(=O)O)cc2)c1 [Compound 7]
Data returned: 4.43

###

So I've got a bunch of molecules here, and I need their pIC50 values.
test system: SNU182; assay: Cell proliferation assay (Alamar Blue); type: cell-based; conditions: Homo sapiens, SNU-182, 144 h; SNU182 liver cancer cell line; 6 days
pIC50: −log10 of the molar value.

Data request: Form field: reported pIC50 of Cc1ccc(F)c(NC(=O)Nc2ccc(-c3cccc4c3c(N)nn4C(=O)CCCCCNC(=O)C[C@H](N)C(=O)N[C@@H](CCC(=O)N[C@@H](CCC(=O)N[C@@H](CCC(=O)N[C@@H](CCC(=O)O)C(=O)O)C(=O)O)C(=O)O)C(=O)O)cc2)c1
Data returned: < 4.00

Data request: Same thing, different molecule: Cc1ccc(F)c(NC(=O)Nc2ccc(-c3cccc4c3c(N)nn4C(=O)CCCCCCCCCCCNC(=O)C[C@H](N)C(=O)N[C@@H](CCC(=O)N[C@@H](CCC(=O)N[C@@H](CCC(=O)N[C@@H](CCC(=O)O)C(=O)O)C(=O)O)C(=O)O)C(=O)O)cc2)c1
Data returned: < 4.00

###

So I've got a bunch of compounds here, and I need their pIC50 values.
system: SW620; assay: Cell proliferation assay (Alamar Blue); assay type: cell-based; settings: Homo sapiens, SW-620, 144 h; SW620 tumor cell line; 6 days
Remember the convention: pIC50 equals -log10 of concentration in molar.

Data request: Form field: reported pIC50 of Cc1ccc(F)c(NC(=O)Nc2ccc(-c3cccc4c3c(N)nn4C(=O)C[C@H](N)C(=O)O)cc2)c1
Data returned: 5.46

Data request: Same thing, different compound: Cc1ccc(F)c(NC(=O)Nc2ccc(-c3cccc4c3c(N)nn4C(=O)CCCCCCCCCCCNC(=O)C[C@H](N)C(=O)N[C@@H](CCC(=O)N[C@@H](CCC(=O)N[C@@H](CCC(=O)N[C@@H](CCC(=O)O)C(=O)O)C(=O)O)C(=O)O)C(=O)O)cc2)c1
Data returned: 4.35

###

test system: KM12; assay: Cell proliferation assay (Alamar Blue); type: cell-based; details: Homo sapiens, 144 h; KM12 tumor cell line; 6 days
EXPERIMENTAL ENDPOINT: IC50 (µM)
Unit µM implied. Number only.

Data request: Form field: reported IC50 of Cc1ccc(F)c(NC(=O)Nc2ccc(-c3cccc4c3c(N)nn4C(=O)CCCCCCCCCCCNC(=O)C[C@H](N)C(=O)N[C@@H](CCC(=O)N[C@@H](CCC(=O)N[C@@H](CCC(=O)N[C@@H](CCC(=O)O)C(=O)O)C(=O)O)C(=O)O)C(=O)O)cc2)c1
Data returned: 12.4

Data request: Same thing, different molecule: Cc1ccc(F)c(NC(=O)Nc2ccc(-c3cccc4c3c(N)nn4C(=O)CCCCCNC(=O)C[C@H](N)C(=O)N[C@@H](CCC(=O)N[C@@H](CCC(=O)N[C@@H](CCC(=O)N[C@@H](CCC(=O)O)C(=O)O)C(=O)O)C(=O)O)C(=O)O)cc2)c1
Data returned: 45.7

Data request: Same thing, different molecule: Cc1ccc(F)c(NC(=O)Nc2ccc(-c3cccc4c3c(N)nn4C(=O)CCCCCNC(=O)C[C@H](N)C(=O)N[C@@H](CCC(=O)O)C(=O)O)cc2)c1
Data returned: 33.9

Data request: Same thing, different molecule: Cc1ccc(F)c(NC(=O)Nc2ccc(-c3cccc4c3c(N)nn4C(=O)C[C@H](N)C(=O)O)cc2)c1
Data returned: 1.47
